- target.desc: Neutrophil collagenase (Homo sapiens)
- Sequence (P22894 whole entry): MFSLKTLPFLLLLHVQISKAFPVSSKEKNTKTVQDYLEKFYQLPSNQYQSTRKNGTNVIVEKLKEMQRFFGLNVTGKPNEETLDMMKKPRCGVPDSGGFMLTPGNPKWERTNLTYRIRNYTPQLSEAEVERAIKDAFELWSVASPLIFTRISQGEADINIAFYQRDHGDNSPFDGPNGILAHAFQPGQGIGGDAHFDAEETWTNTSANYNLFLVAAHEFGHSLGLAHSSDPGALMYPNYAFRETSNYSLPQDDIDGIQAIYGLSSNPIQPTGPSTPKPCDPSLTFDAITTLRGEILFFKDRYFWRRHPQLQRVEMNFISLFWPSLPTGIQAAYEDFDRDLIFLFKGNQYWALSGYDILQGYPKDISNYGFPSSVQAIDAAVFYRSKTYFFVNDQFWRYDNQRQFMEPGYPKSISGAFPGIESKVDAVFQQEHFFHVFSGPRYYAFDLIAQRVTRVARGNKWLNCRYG
readout.name: pKi
Answer as the number alone; pKi is minus log10 of concentration in mol/L.

compound | readout.name | val
CC(C)C[C@H](CC(=O)NO)C(=O)N[C@@H](Cc1c[nH]c2ccccc12)C(=O)NC1CC1 | pKi | 9.47
CNC(=O)[C@H](Cc1c[nH]c2ccccc12)NC(=O)[C@@H](CC(=O)NOCc1ccccc1)CC(C)C | pKi | 7.80

Please report the recorded pKi for CC(C)C[C@H](CC(=O)NO)C(=O)N[C@@H](Cc1c[nH]c2ccccc12)C(=O)NCc1ccco1 .
9.31

Which value of pKi has been reported for CCCC[C@H](CC(=O)NO)C(=O)N[C@@H](Cc1c[nH]c2ccccc12)C(=O)NC in the records?
9.52

Consider the compound shown here: CCCCCNC(=O)[C@H](Cc1c[nH]c2ccccc12)NC(=O)[C@@H](CC(=O)NO)CC(C)C What is its recorded pKi?
8.19

Reported pKi for CC(C)C[C@H](CC(=O)NO)C(=O)N[C@@H](Cc1c[nH]c2ccccc12)C(=O)N(C)C : what is it?
8.07

Given CCCCCO[C@H](CC(=O)NO)C(=O)N[C@@H](Cc1c[nH]c2ccccc12)C(=O)NC , state its recorded pKi.
8.11

Find the recorded pKi belonging to CC(C)C[C@H](CC(=O)NO)C(=O)N[C@H](Cc1cccc2ccccc12)C(=O)NCCCN1CCOCC1 and report it.
9.52

# lookup: pKi of CNC(=O)[C@@H](Cc1ccc2ccccc2c1)NC(=O)[C@@H](CC(=O)NO)CC(C)C
8.89

Param item = CNC(=O)[C@@H](Cc1ccc(-c2ccccc2)cc1)NC(=O)[C@@H](CC(=O)NO)CC(C)C ; retrieve measured pKi.
8.62

Quick one: pKi for CC(C)C[C@H](CC(=O)NO)C(=O)N[C@H](Cc1ccc2ccccc2c1)C(=O)NCCc1ccc(O)cc1 ?
8.35

pKi lookup needed for CC(C)C[C@H](CC(=O)NO)C(=O)N[C@@H](Cc1c[nH]c2ccccc12)C(=O)N1CCCCC1 , thanks.
7.57

Query (compound): CNC(=O)[C@H](Cc1c[nH]c2ccccc12)NC(=O)C(CC(C)C)C(O)C(=O)NO (single isomer, unassigned) ; field requested: pKi
9.39

Record request: pKi value, item CC(C)C[C@H](CC(=O)NO)C(=O)N[C@@H](Cc1c[nH]c2ccccc12)C(=O)NCCc1ccc(O)cc1
10.00

Could you share which pKi value was measured for CC(C)C[C@H](CC(=O)NO)C(=O)N[C@@H](Cc1c[nH]c2ccccc12)C(=O)NCCO ?
9.46

What value of pKi has been reported for the following compound? CNC(=O)[C@@H](Cc1cccc2cccnc12)NC(=O)[C@@H](CC(=O)NO)CC(C)C
9.27

Consider the compound CNC(=O)[C@H](Cc1c[nH]c2ccccc12)NC(=O)[C@@H](CC(=O)NO)OC(C)C and give its measured pKi.
7.92

Fill blank: measured pKi of the compound CNC(=O)[C@H](Cc1cn(C)c2ccccc12)NC(=O)[C@@H](CC(=O)NO)CC(C)C is ____.
9.18

Fill blank: measured pKi of the compound CCCCCCCC[C@H](CC(=O)NO)C(=O)N[C@@H](Cc1c[nH]c2ccccc12)C(=O)NC is ____.
8.80

# query: pKi of entry CNC(=O)[C@H](Cc1c[nH]c2ccccc12)NC(=O)[C@@H](CC(=O)NOC)CC(C)C
8.11

Item CC(C)C[C@H](CC(=O)NO)C(=O)N[C@@H](Cc1c[nH]c2ccccc12)C(=O)NCc1cccnc1 has what recorded pKi?
9.96
